Test: Ex vivo biodistribution in mice with MM1S tumor xenografts
Conditions: both sexes, NSG, mouse, blood, 80 µCi, total radioactivity, 5 min p.i.; MM1S xenograft mice; read-out: uptake in blood
PARAMETER MEASURED: tissue uptake at 5 min (%ID/g)
The figure you give is taken to be in %ID/g; do not add the unit.

Consider the molecule shown here: CC[C@H](C)[C@@H]1NC(=O)[C@@H]2CCCN2C(=O)[C@H](Cc2ccccc2)NC(=O)[C@H](CC(=O)O)NC(=O)[C@H](C)NC(=O)[C@@H]2CSCc3cc(cc(c3)CSC[C@H](NC(=O)[C@H](C)NC(=O)CCOCCOCCOCCNC(=O)CN3CCN(CC(=O)O)CCN(CC(=O)O)CC3)C(=O)N[C@@H](C(C)C)C(=O)N3CCC[C@H]3C(=O)N2)CSC[C@@H](C(N)=O)NC(=O)[C@H](Cc2ccc(O)cc2)NC(=O)[C@H](Cc2c[nH]c3ccccc23)NC1=O [[^68Ga]Ga‐AJ206, metal not drawn] What is its recorded tissue uptake at 5 min? 20.7

###

Assay: Ex vivo biodistribution in mice with MM1S tumor xenografts
Details: both sexes, NSG, mouse, tumor/blood, total radioactivity, 60 min p.i.; MM1S xenograft mice with blocking dose (2 mg kg^−1 AJ206); read-out: Tumor/Blood ratio
PARAMETER MEASURED: tissue to tissue ratio at 1 h
Answer using only a numeral; do not append any unit.

Consider the compound shown here: CC[C@H](C)[C@@H]1NC(=O)[C@@H]2CCCN2C(=O)[C@H](Cc2ccccc2)NC(=O)[C@H](CC(=O)O)NC(=O)[C@H](C)NC(=O)[C@@H]2CSCc3cc(cc(c3)CSC[C@H](NC(=O)[C@H](C)NC(=O)CCOCCOCCOCCNC(=O)CN3CCN(CC(=O)O)CCN(CC(=O)O)CC3)C(=O)N[C@@H](C(C)C)C(=O)N3CCC[C@H]3C(=O)N2)CSC[C@@H](C(N)=O)NC(=O)[C@H](Cc2ccc(O)cc2)NC(=O)[C@H](Cc2c[nH]c3ccccc23)NC1=O [[^68Ga]Ga‐AJ206, metal not drawn] What is its recorded tissue to tissue ratio at 1 h? 1.08

###

Assay: Ex vivo biodistribution in mice with MM1S tumor xenografts
Details: both sexes, NSG, mouse, heart, 80 µCi, total radioactivity, 120 min p.i.; MM1S xenograft mice; read-out: uptake in heart
PARAMETER MEASURED: tissue uptake at 2 h (%ID/g)
The figure you give is taken to be in %ID/g; do not add the unit.

Consider the compound shown here: CC[C@H](C)[C@@H]1NC(=O)[C@@H]2CCCN2C(=O)[C@H](Cc2ccccc2)NC(=O)[C@H](CC(=O)O)NC(=O)[C@H](C)NC(=O)[C@@H]2CSCc3cc(cc(c3)CSC[C@H](NC(=O)[C@H](C)NC(=O)CCOCCOCCOCCNC(=O)CN3CCN(CC(=O)O)CCN(CC(=O)O)CC3)C(=O)N[C@@H](C(C)C)C(=O)N3CCC[C@H]3C(=O)N2)CSC[C@@H](C(N)=O)NC(=O)[C@H](Cc2ccc(O)cc2)NC(=O)[C@H](Cc2c[nH]c3ccccc23)NC1=O [[^68Ga]Ga‐AJ206, metal not drawn] What is its recorded tissue uptake at 2 h? 0.16

###

Test: Ex vivo biodistribution in mice with MM1S tumor xenografts
Settings: both sexes, NSG, mouse, thymus, 80 µCi, total radioactivity, 120 min p.i.; MM1S xenograft mice; read-out: uptake in thymus
Protocol: […] Mice with 100–200 mm^3 tumor volume were used for ex vivo biodistribution studies. For radiotracer pharmacokinetics studies, mice with MOLP8 tumor xenografts received ≈80 µCi (2.96 MBq) [^68Ga]Ga‐AJ206 and were sacrificed at pre‐determined time points (5, 30, 60 and 120 min). Similarly, for dosimetry study, mice with MM1S tumor xenografts received ≈80 µCi (2.96 MBq) of [^68Ga]Ga‐AJ206 and were sacrificed at pre‐determined time points (5, 30, 60, 90 and 120 min). […]
PARAMETER MEASURED: tissue uptake at 2 h (%ID/g)
The figure you give is taken to be in %ID/g; do not add the unit.

Consider the compound shown here: CC[C@H](C)[C@@H]1NC(=O)[C@@H]2CCCN2C(=O)[C@H](Cc2ccccc2)NC(=O)[C@H](CC(=O)O)NC(=O)[C@H](C)NC(=O)[C@@H]2CSCc3cc(cc(c3)CSC[C@H](NC(=O)[C@H](C)NC(=O)CCOCCOCCOCCNC(=O)CN3CCN(CC(=O)O)CCN(CC(=O)O)CC3)C(=O)N[C@@H](C(C)C)C(=O)N3CCC[C@H]3C(=O)N2)CSC[C@@H](C(N)=O)NC(=O)[C@H](Cc2ccc(O)cc2)NC(=O)[C@H](Cc2c[nH]c3ccccc23)NC1=O [[^68Ga]Ga‐AJ206, metal not drawn] What is its recorded tissue uptake at 2 h? 0.33

###

Assay: Ex vivo biodistribution in mice with MM1S tumor xenografts
Settings: both sexes, NSG, mouse, small intestine, 2 mg/kg, 60 min p.i.; MM1S xenograft mice with blocking dose (2 mg kg^−1 AJ206); read-out: uptake in small intestine
Procedure: […] Mice with 100–200 mm^3 tumor volume were used for ex vivo biodistribution studies. For radiotracer pharmacokinetics studies, mice with MOLP8 tumor xenografts received ≈80 µCi (2.96 MBq) [^68Ga]Ga‐AJ206 and were sacrificed at pre‐determined time points (5, 30, 60 and 120 min). Similarly, for dosimetry study, mice with MM1S tumor xenografts received ≈80 µCi (2.96 MBq) of [^68Ga]Ga‐AJ206 and were sacrificed at pre‐determined time points (5, 30, 60, 90 and 120 min). […]
PARAMETER MEASURED: tissue uptake at 1 h (%ID/g)
The figure you give is taken to be in %ID/g; do not add the unit.

Consider the molecule shown here: CC[C@H](C)[C@@H]1NC(=O)[C@@H]2CCCN2C(=O)[C@H](Cc2ccccc2)NC(=O)[C@H](CC(=O)O)NC(=O)[C@H](C)NC(=O)[C@@H]2CSCc3cc(cc(c3)CSC[C@H](NC(=O)[C@H](C)NC(=O)CCOCCOCCOCCNC(=O)CN3CCN(CC(=O)O)CCN(CC(=O)O)CC3)C(=O)N[C@@H](C(C)C)C(=O)N3CCC[C@H]3C(=O)N2)CSC[C@@H](C(N)=O)NC(=O)[C@H](Cc2ccc(O)cc2)NC(=O)[C@H](Cc2c[nH]c3ccccc23)NC1=O [[^68Ga]Ga‐AJ206, metal not drawn] What is its recorded tissue uptake at 1 h? 0.87

###

Experiment: Ex vivo biodistribution in mice with MM1S tumor xenografts
Conditions: both sexes, NSG, mouse, bladder, 80 µCi, 120 min p.i.; MM1S xenograft mice; read-out: uptake in bladder
Method: […] Mice with 100–200 mm^3 tumor volume were used for ex vivo biodistribution studies. For radiotracer pharmacokinetics studies, mice with MOLP8 tumor xenografts received ≈80 µCi (2.96 MBq) [^68Ga]Ga‐AJ206 and were sacrificed at pre‐determined time points (5, 30, 60 and 120 min). Similarly, for dosimetry study, mice with MM1S tumor xenografts received ≈80 µCi (2.96 MBq) of [^68Ga]Ga‐AJ206 and were sacrificed at pre‐determined time points (5, 30, 60, 90 and 120 min). […]
PARAMETER MEASURED: tissue uptake at 2 h (%ID/g)
The figure you give is taken to be in %ID/g; do not add the unit.

Consider the molecule shown here: CC[C@H](C)[C@@H]1NC(=O)[C@@H]2CCCN2C(=O)[C@H](Cc2ccccc2)NC(=O)[C@H](CC(=O)O)NC(=O)[C@H](C)NC(=O)[C@@H]2CSCc3cc(cc(c3)CSC[C@H](NC(=O)[C@H](C)NC(=O)CCOCCOCCOCCNC(=O)CN3CCN(CC(=O)O)CCN(CC(=O)O)CC3)C(=O)N[C@@H](C(C)C)C(=O)N3CCC[C@H]3C(=O)N2)CSC[C@@H](C(N)=O)NC(=O)[C@H](Cc2ccc(O)cc2)NC(=O)[C@H](Cc2c[nH]c3ccccc23)NC1=O [[^68Ga]Ga‐AJ206, metal not drawn] What is its recorded tissue uptake at 2 h? 0.9

###

Assay: Ex vivo biodistribution in mice with MM1S tumor xenografts
Details: both sexes, NSG, mouse, muscle, 80 µCi, 90 min p.i.; MM1S xenograft mice; read-out: uptake in muscle
PARAMETER MEASURED: tissue uptake at 1.5 h (%ID/g)
The figure you give is taken to be in %ID/g; do not add the unit.

Consider the compound shown here: CC[C@H](C)[C@@H]1NC(=O)[C@@H]2CCCN2C(=O)[C@H](Cc2ccccc2)NC(=O)[C@H](CC(=O)O)NC(=O)[C@H](C)NC(=O)[C@@H]2CSCc3cc(cc(c3)CSC[C@H](NC(=O)[C@H](C)NC(=O)CCOCCOCCOCCNC(=O)CN3CCN(CC(=O)O)CCN(CC(=O)O)CC3)C(=O)N[C@@H](C(C)C)C(=O)N3CCC[C@H]3C(=O)N2)CSC[C@@H](C(N)=O)NC(=O)[C@H](Cc2ccc(O)cc2)NC(=O)[C@H](Cc2c[nH]c3ccccc23)NC1=O [[^68Ga]Ga‐AJ206, metal not drawn] What is its recorded tissue uptake at 1.5 h? 0.18
